Molecular target: T1, human OPGbp [143-317] (human, UniProt O14788 143-317)
T1 construct: also called OPGL
T1 sequence (looked up): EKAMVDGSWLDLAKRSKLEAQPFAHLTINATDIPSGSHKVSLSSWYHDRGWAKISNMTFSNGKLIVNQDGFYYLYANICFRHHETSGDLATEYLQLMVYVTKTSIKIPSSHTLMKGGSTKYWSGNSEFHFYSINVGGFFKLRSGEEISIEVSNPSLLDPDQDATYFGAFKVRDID
Assay: SPR (BIAcore), immobilized OPGbp [143-317]
endpointName: pKd
Field pKd (float): negative decimal logarithm of the concentration in molar.

Task item: Input “AT” antibody variant S96F (heavy chain CDR3) (antibody, name in Kabat numbering, V domains shown, not shown: human IgG1 CH1, hinge, CH2 and CH3) VH: QVQLVQSGAEVRKPGASVKVSCKASGYDFSNYAIHWVRQAPGQRLEWMGWINAGNGNTKFSQKFQGRITVTRDTAASTAYMELRSLRSEDTAVYYCARDFSNMVRGIIIAYYFDYWGQGTLVTVSS VL: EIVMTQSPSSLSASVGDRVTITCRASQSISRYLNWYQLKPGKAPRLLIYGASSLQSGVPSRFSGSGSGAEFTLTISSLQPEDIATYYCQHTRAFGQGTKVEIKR , output reported pKd.
Reply: 8.07

Task item: Give reported pKd value for “AT” antibody variant S96Q (heavy chain CDR3) (antibody, name in Kabat numbering, V domains shown, not shown: human IgG1 CH1, hinge, CH2 and CH3) VH: QVQLVQSGAEVRKPGASVKVSCKASGYDFSNYAIHWVRQAPGQRLEWMGWINAGNGNTKFSQKFQGRITVTRDTAASTAYMELRSLRSEDTAVYYCARDQSNMVRGIIIAYYFDYWGQGTLVTVSS VL: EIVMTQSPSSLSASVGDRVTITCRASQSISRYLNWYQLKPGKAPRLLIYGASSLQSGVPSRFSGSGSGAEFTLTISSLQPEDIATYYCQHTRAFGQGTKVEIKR
Reply: 8.51

Task item: Answer with the recorded pKd for the binder listed here: “AT” antibody variant S96W (heavy chain CDR3) (antibody, name in Kabat numbering, V domains shown, not shown: human IgG1 CH1, hinge, CH2 and CH3) VH: QVQLVQSGAEVRKPGASVKVSCKASGYDFSNYAIHWVRQAPGQRLEWMGWINAGNGNTKFSQKFQGRITVTRDTAASTAYMELRSLRSEDTAVYYCARDWSNMVRGIIIAYYFDYWGQGTLVTVSS VL: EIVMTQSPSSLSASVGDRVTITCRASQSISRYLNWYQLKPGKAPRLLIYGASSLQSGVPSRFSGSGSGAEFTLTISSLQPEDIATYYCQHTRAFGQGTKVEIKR
Reply: 8.90

Task item: Write down pKd measured for item “AT” antibody variant S96V (heavy chain CDR3) (antibody, name in Kabat numbering, V domains shown, not shown: human IgG1 CH1, hinge, CH2 and CH3) VH: QVQLVQSGAEVRKPGASVKVSCKASGYDFSNYAIHWVRQAPGQRLEWMGWINAGNGNTKFSQKFQGRITVTRDTAASTAYMELRSLRSEDTAVYYCARDVSNMVRGIIIAYYFDYWGQGTLVTVSS VL: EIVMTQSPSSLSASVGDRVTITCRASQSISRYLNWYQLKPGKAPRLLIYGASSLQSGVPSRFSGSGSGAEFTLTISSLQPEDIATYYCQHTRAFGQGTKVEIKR
Reply: 8.65

Task item: Using known records, supply pKd for “AT” antibody variant S96H (heavy chain CDR3) (antibody, name in Kabat numbering, V domains shown, not shown: human IgG1 CH1, hinge, CH2 and CH3) VH: QVQLVQSGAEVRKPGASVKVSCKASGYDFSNYAIHWVRQAPGQRLEWMGWINAGNGNTKFSQKFQGRITVTRDTAASTAYMELRSLRSEDTAVYYCARDHSNMVRGIIIAYYFDYWGQGTLVTVSS VL: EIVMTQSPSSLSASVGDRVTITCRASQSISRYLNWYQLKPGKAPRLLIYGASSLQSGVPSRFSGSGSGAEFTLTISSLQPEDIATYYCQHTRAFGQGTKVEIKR
Reply: 8.73
